Biological target: γ-secretase (Homo sapiens)
Construct: endogenous in cells; host or cells: SKNBE2 human neuroblastoma cells (carrying hAPP 695 wild type as substrate)
Assay: Screening for γ-secretase-modulating activity: Aβ42 in supernatant of SKNBE2 cells carrying hAPP 695 wild type (Alphalisa)
Format: cell-based
Settings: SKNBE2 human neuroblastoma cells carrying hAPP 695 wild type, overnight incubation, Aβ42 in cell supernatant
Experimental: Screening was carried out using SKNBE2 human neuroblastoma cells carrying the hAPP 695—wild type, grown in Dulbecco's Modified Eagle's Medium/Nutrient mixture F-12 (DMEM/NUT-mix F-12) (HAM) provided by Invitrogen (cat no. 10371-029) containing 5% Serum/Fe supplemented with 1% non-essential amino acids, 1-glutamine 2 mM, Hepes 15 mM, penicillin 50 U/ml (units/ml) en streptomycin 50 μg/ml. Cells were grown to near confluency. […]
Readout: IC50 (nM)

Cc1cn(-c2ccc3n(c2=O)CCN(Cc2cccc(C(F)(F)F)c2C)C3=O)cn1 ... 830
Cc1cn(-c2ccc3n(c2=O)C[C@@H](C)N(Cc2cc(CC(F)(F)F)cc(C(F)(F)F)c2)C3=O)cn1 ... 100
Cc1cn(-c2ccc3n(c2=O)C[C@@H](C)N(CCc2cc(OC(C)C)cc(C(F)(F)F)c2)C3=O)cn1 ... 30
Cc1ncn(-c2ccc3n(c2=O)CC(C)N(Cc2cc(C(F)(F)F)cc(C(F)(F)F)c2)C3=O)n1 (stereo not drawn) ... 510

1: CCn1cc(CN2C(=O)c3ccc(-n4cnc(C)c4)c(=O)n3C[C@H]2C)c2cc(OC)c(Cl)cc21
2: Cc1cn(-c2ccc3n(c2=O)CC(C)N(C2CCc4ccc(C(F)(F)F)cc42)C3=O)cn1 (stereo not drawn) [compound 205]
Q. For the two items 1 and 2 , which reports the higher IC50 value? Select an item and report its label.
A. 2

* * *

Molecular target: γ-secretase (Homo sapiens)
Construct: endogenous in cells; host or cells: SKNBE2 human neuroblastoma cells (carrying hAPP 695 wild type as substrate)
Assay: Screening for γ-secretase-modulating activity: Aβ42 in supernatant of SKNBE2 cells carrying hAPP 695 wild type (Alphalisa)
Type: cell-based
Conditions: SKNBE2 human neuroblastoma cells carrying hAPP 695 wild type, overnight incubation, Aβ42 in cell supernatant
Procedure: Screening was carried out using SKNBE2 human neuroblastoma cells carrying the hAPP 695—wild type, grown in Dulbecco's Modified Eagle's Medium/Nutrient mixture F-12 (DMEM/NUT-mix F-12) (HAM) provided by Invitrogen (cat no. 10371-029) containing 5% Serum/Fe supplemented with 1% non-essential amino acids, 1-glutamine 2 mM, Hepes 15 mM, penicillin 50 U/ml (units/ml) en streptomycin 50 μg/ml. Cells were grown to near confluency. […]
pIC50: −log10 of the molar value.
Readout: pIC50

# example entries with known answers
Cc1cn(-c2ccc3n(c2=O)C[C@@H](C)N(Cc2ccc4scc(Br)c4c2)C3=O)cn1 [compound 115] ... 6.85
Cc1cn(-c2ccc3n(c2=O)C[C@@H](C)N(Cc2cn(C)c4cc(F)c(C(F)(F)F)cc24)C3=O)cn1 [compound 238] ... 8.05
Cc1cn(-c2ccc3n(c2=O)CC(C)N(C(C)c2c[nH]c4cc(F)c(Cl)cc24)C3=O)cn1 (single isomer, unassigned) [compound 188] ... 8.00
Cc1cn(-c2ccc3n(c2=O)C[C@@H](C)N(C(C)c2cccc(OC(F)(F)F)c2)C3=O)cn1 (single isomer, unassigned) [compound 146] ... 6.82
Cc1cn(-c2ccc3n(c2=O)CCN(C(C)c2cccc(C(F)(F)F)c2)C3=O)cn1 (single isomer, unassigned) [11a] ... 6.18

I: Cc1cn(-c2ccc3n(c2=O)C[C@@H](C)N(Cc2cccc(N4CCCCC4)c2)C3=O)cn1 [compound 84]
II: Cc1cn(-c2ccc3n(c2=O)CC(C)N(C(C)c2cn(C)c4c(F)cc(Cl)cc24)C3=O)cn1 (single isomer, unassigned) [compound 224]
Q. For the two items I and II , which reports the higher pIC50 value? Select an item and report its label.
A. II
